Tested on: insecticide-resistant Myzus persicae strain 4013A
Assay: Leaf-disc dip bioassay on adult aphids, insecticide-resistant strain (Example IX)
Settings: probit analysis; 72 h mortality data
experimental readout: LC50, R strain (4013A)

May I ask what LC50, R strain (4013A) has been recorded for O=[N+]([O-])NC1=NCCN1Cc1ccc(Cl)nc1 [Imidacloprid, imidacloprid] ?
15.3 ppm

Query (molecule): CS(=O)(Cc1ccc(Cl)nc1)=NC#N (centres unmarked) [Compound 4] ; field requested: LC50, R strain (4013A)
103 ppm

Please look up its LC50, R strain (4013A): Cc1nc(N(C)C)nc(OC(=O)N(C)C)c1C [Pirimicarb, pirimicarb]
>1000 ppm

Entry CC(c1ccc(C(F)(F)F)nc1)S(C)(=O)=NC#N (centres unmarked) [Compound 2] has what LC50, R strain (4013A)?
1.52 ppm

Quick one: LC50, R strain (4013A) of CC(c1ccc(Cl)nc1)S(C)(=O)=NC#N (centres unmarked) [Compound 5] ?
12.5 ppm

====

Field: LC50, S strain (US1L). Provide a value for each of the compounds that follow.
System: Myzus persicae US1L strain (susceptible)
Conditions: probit analysis; 72 h mortality data
Give the value, in units of ppm, as a plain number.

# query: LC50, S strain (US1L) | item Cc1nc(N(C)C)nc(OC(=O)N(C)C)c1C [Pirimicarb, pirimicarb] | system: Myzus persicae US1L strain (susceptible)
14.8

Could you share what LC50, S strain (US1L) was measured for CC(c1ccc(C(F)(F)F)nc1)S(C)(=O)=NC#N (stereo not shown) [Compound 2] , tested on Myzus persicae US1L strain (susceptible)?
4.13

Find the measured LC50, S strain (US1L): item O=[N+]([O-])NC1=NCCN1Cc1ccc(Cl)nc1 [Imidacloprid, imidacloprid] , target or system Myzus persicae US1L strain (susceptible).
0.9

Please state recorded LC50, S strain (US1L) (tested on Myzus persicae US1L strain (susceptible)) of CC1(C)[C@H](C(=O)O[C@H](C#N)c2cccc(Oc3ccccc3)c2)[C@@H]1C=C(Br)Br [Deltamethrin, deltamethrin]
1.5

====

System: Bemisia tabaci SUD-S strain (susceptible laboratory strain)
Assay: Leaf-disc dip bioassay on adult whiteflies, susceptible reference strain (Example IX)
Format: in vivo
Details: probit analysis; mortality at 72 hours for Compounds 2, 4, 5, 48 hours for commercial standards
experimental readout: LC50, S strain (SUD-S) (ppm)
Reply numerically in ppm, unit not repeated.

Entry CC1(C)[C@H](C(=O)O[C@H](C#N)c2cccc(Oc3ccccc3)c2)[C@@H]1C=C(Br)Br has what LC50, S strain (SUD-S)?
0.4

Please report the recorded LC50, S strain (SUD-S) for CC(c1ccc(C(F)(F)F)nc1)S(C)(=O)=NC#N (stereo not shown) .
1.8

// lookup LC50, S strain (SUD-S) for CCCSP(=O)(OCC)Oc1ccc(Br)cc1Cl (stereo not shown)
2.0

Quick check: LC50, S strain (SUD-S) of O=[N+]([O-])NC1=NCCN1Cc1ccc(Cl)nc1 ?
1.2

====

System: insecticide-resistant Q-biotype Bemisia tabaci strain CHLORAKA
Assay: Leaf-disc dip bioassay on adult whiteflies, insecticide-resistant Q-biotype strain (Example IX)
Assay type: in vivo
Settings: probit analysis; mortality at 72 hours for Compounds 2, 4, 5, 48 hours for commercial standards
experimental readout: LC50, R strain (CHLORAKA) (ppm)
Report the value in ppm with no unit label.

Given the entry CC(c1ccc(C(F)(F)F)nc1)S(C)(=O)=NC#N (stereo not shown) , report its measured LC50, R strain (CHLORAKA).
5.0

Dear colleague, I am looking for the recorded LC50, R strain (CHLORAKA) of the following compound: CCCSP(=O)(OCC)Oc1ccc(Br)cc1Cl (stereo not shown)
374

Could you tell me which LC50, R strain (CHLORAKA) is on file for CC1(C)[C@H](C(=O)O[C@H](C#N)c2cccc(Oc3ccccc3)c2)[C@@H]1C=C(Br)Br ?
325
